- Read-out: Low-density lipoprotein receptor (LDLR), LDLR (gene 3949)
- method-description: BSK_CASM3C_LDLR: BioMAP Diversity Plus: CASM3C Assay for Low-density lipoprotein receptor (LDLR) Biomarker Activity (AID 2283045);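 further: LDLR protein level on the cell surface quantified by ELISA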
- reported-conditions: primary human coronary artery smooth muscle cells; actives raise or lower the signal
Activity calls are given as the source filed them. How the source made its calls: active means hit-call score of the fitted dose curve at least 0.9, where 1 is the maximum; inactive means score below 0.9.
Returns: one label drawn from active, inactive

Solved cases below.
compound=CCOP(=O)(OCC)OC(=CCl)c1ccc(Cl)cc1Cl classification=active
compound=C[C@]12CC[C@@H](O)C[C@@H]1CC[C@@H]1[C@@H]2CC[C@]2(C)C(=O)CC[C@@H]12 classification=active
compound=Cc1cc(Cl)ccc1N classification=inactive

Now examine the next entry.
Ask | Per the records of this test, what outcome belongs to N#CCCC(Br)(C#N)CBr (stereo not drawn) ?
Reply | active
